Experiment: Approximate solubility in organic solvents from solvent addition
Assay type: physicochemical
Conditions: organic solvent or mixture, thermodynamic from solid; Toluene, room temperature (20-25° C.)
Observation type: solubility

Problem: I would be grateful if you could share the reported solubility for CCCCCCCC(=O)N[C@H](CN1CCCC1)[C@H](O)c1ccc2c(c1)OCCO2 [Formula (I) Hemitartrate] .
Solution: < 5000 µg/mL

====

Target: sucrase (Rattus norvegicus)
Sequence (P23739 whole entry): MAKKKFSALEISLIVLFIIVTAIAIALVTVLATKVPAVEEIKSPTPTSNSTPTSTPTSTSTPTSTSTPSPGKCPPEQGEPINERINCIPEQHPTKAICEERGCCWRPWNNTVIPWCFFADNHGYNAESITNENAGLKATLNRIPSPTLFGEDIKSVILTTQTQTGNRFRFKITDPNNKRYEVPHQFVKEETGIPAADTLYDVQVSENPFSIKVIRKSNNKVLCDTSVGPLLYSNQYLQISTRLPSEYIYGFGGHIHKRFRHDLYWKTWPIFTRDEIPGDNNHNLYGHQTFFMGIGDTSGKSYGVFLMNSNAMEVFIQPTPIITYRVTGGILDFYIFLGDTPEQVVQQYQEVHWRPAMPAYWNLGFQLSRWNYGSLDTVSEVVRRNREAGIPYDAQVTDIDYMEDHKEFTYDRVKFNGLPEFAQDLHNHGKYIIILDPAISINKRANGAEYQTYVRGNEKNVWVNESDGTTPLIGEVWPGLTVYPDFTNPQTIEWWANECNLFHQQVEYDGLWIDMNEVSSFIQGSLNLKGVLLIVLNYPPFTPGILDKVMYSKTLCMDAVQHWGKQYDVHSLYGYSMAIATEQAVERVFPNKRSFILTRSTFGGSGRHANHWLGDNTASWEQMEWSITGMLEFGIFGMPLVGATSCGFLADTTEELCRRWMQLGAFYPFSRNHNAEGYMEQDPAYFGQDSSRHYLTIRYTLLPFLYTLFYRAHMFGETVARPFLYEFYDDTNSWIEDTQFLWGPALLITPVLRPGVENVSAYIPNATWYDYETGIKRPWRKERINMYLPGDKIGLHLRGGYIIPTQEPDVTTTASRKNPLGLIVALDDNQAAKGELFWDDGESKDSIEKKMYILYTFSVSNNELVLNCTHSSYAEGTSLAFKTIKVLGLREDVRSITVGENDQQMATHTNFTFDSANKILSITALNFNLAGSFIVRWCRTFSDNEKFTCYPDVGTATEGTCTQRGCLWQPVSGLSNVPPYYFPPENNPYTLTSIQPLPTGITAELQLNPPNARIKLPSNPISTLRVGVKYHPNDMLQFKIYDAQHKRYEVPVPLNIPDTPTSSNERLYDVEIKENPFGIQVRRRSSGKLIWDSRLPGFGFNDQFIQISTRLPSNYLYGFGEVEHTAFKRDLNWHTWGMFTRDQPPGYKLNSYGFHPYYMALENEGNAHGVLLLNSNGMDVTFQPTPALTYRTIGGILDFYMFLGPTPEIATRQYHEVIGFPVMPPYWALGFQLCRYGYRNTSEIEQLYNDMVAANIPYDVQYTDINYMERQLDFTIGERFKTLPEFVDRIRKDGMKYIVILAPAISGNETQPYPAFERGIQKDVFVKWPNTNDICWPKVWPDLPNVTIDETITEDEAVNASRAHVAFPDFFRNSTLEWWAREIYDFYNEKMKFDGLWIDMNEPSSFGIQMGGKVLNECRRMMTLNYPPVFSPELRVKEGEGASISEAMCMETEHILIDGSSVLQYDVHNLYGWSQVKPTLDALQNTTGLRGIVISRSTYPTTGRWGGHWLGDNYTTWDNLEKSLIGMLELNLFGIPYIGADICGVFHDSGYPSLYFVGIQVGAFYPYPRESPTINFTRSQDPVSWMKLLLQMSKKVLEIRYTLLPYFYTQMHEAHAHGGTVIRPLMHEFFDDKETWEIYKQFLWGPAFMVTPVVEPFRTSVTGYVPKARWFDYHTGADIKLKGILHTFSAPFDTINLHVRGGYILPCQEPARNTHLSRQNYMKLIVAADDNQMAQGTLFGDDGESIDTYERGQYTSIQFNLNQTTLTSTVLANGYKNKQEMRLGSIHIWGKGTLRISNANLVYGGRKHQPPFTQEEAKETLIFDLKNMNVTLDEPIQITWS
Observation type: Ki

Problem: Requested field: Ki. Item: CCCCCCCC(=O)N[C@H](CN1CCCC1)[C@H](O)c1ccc2c(c1)OCCO2 [Formula (I) Hemitartrate]
Solution: > 10 µM

====

Molecular target: Lysosomal glucocerebrosidase (GBA1) (Homo sapiens, UniProt P04062)
Construct: endogenous in cells; K562 cells for the FACS assay
Sequence (P04062 40-536): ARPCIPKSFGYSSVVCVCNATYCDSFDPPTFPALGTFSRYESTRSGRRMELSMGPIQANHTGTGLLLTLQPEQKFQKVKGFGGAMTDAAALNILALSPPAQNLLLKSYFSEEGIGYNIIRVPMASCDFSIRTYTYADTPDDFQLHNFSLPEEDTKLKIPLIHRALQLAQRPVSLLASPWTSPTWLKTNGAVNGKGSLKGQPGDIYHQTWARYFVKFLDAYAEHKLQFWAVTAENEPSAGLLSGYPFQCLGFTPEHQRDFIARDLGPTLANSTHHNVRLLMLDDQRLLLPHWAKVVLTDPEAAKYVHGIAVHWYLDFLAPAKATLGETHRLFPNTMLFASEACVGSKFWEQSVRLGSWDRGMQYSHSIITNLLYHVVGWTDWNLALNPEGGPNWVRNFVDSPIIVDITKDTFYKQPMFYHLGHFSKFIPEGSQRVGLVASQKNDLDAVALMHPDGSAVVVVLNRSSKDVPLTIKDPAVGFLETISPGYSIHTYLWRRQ
Assay: Lysosomal glucocerebrosidase in intact human cells / FACS in K562 cells
Settings: read-out: Enzyme specificities, IC50: Lysosomal glucocerebrosidase (GBA1)
Observation type: IC50

Problem: What measured IC50 goes with CCCCCCCC(=O)N[C@H](CN1CCCC1)[C@H](O)c1ccc2c(c1)OCCO2 [Formula (I) Hemitartrate] ?
Solution: > 2.5 mM

Data provenance: patent US10888547B2
